- Test system: PIKFYVE
- Condition Parameters: concentration: 1 μM, replicates: in singlicate; n = 1;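 further: KINOMEscan kinase panel screen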
We begin with a simple list: items and their reported %Inh.
Quantity Kind: %Inh (%)

                                    molecule  assay_result
 0  COc1ccc(C2=C(Nc3cccc(O)c3)C(=O)NC2=O)cc1 [SB-390766]             0
 1  CCNC(=O)/C=C/c1n[nH]c2cc(Sc3ccccc3C(=O)NC)ccc12             1
 2  CN1CCN(Cc2ccc(NC(=O)Nc3ccc(N(C)c4ccnc(Nc5ccc(CS(C)(=O)=O)cc5)n4)cc3)cc2)CC1.Cl [GW827654]             7
 3  COC(=O)Nc1nc2cc(Oc3ccc(NC(=O)Nc4cccc(SC)c4)cc3)ccc2[nH]1.Cl [GW697999]             0
 4  Cc1ccc(C)c(NC(=O)Nc2ccc(C)c(-c3ccc(C(=O)Nc4ccncc4)cc3)c2)c1 [GSK1398473]             0
 5  Cc1ccc(O)cc1Nc1ccnc2cc(-c3ccc(CN4CCCCC4)o3)ccc12 [GW557777]             0
 6  Cc1ccc(NC(=O)c2ccc(Cl)c(Cl)c2)cc1-c1ccc(C(=O)Nc2ccncc2)cc1 [GSK1398460]             0
 7  COC(=O)Nc1nc2ccc(Oc3ccc(CC(=O)Nc4cc(C(F)(F)F)ccc4F)cc3)cc2[nH]1 [GW680903]             5
 8  Cc1cccc(Nc2nc(NCCN)ncc2C(N)=O)c1 [GSK1292139]             0
 9  Cc1ccc(Nc2ccnc(Nc3ccc(C)c(F)c3)n2)cc1O.Cl [GW582868]            24
10  Cl.N#CCc1ccc(Nc2nccc(Nc3ccc(Oc4ccccc4)cc3)n2)cc1 [GW639905]            13
11  Cc1cccc(Nc2nc(N[C@H]3CCCC[C@H]3N)ncc2C(N)=O)c1.Cl [GSK986310]             0
12  CC(=O)Nc1cn2nc(Oc3cccc(NC(=O)c4cccc(C(F)(F)F)c4)c3)ccc2n1             0
13  Fc1cc(Cl)ccc1Nc1ccnc2cc(-c3ccc(CN4CCOCC4)o3)ccc12 [GW560109]             5
14  Cn1cc(-c2ccc3c(c2)CCN3C(=O)Cc2cc(F)cc(F)c2F)c2c(N)ncnc21 [GSK2634140]             0
15  CSc1ccc(NC2=C(c3ccc(Cl)cc3)C(=O)NC2=O)cc1 [SB-317658]             0

###

We begin with a simple list: items and their reported %Inh.
- Tested on: CAMK2G
- Condition Parameters: concentration: 1 μM, replicates: in singlicate; n = 1
Quantity Kind: %Inh (%)

In [3]: df
Out[3]:
                                    compound  assay_result
 0  Cc1ccc(Nc2ccnc(Nc3ccc(C)c(F)c3)n2)cc1O.Cl             0
 1     O=C(Nc1n[nH]c2cc(-c3cccs3)ccc12)C1CC1             0
 2  CC(=O)Nc1cn2nc(Oc3cccc(NC(=O)c4cccc(C(F)(F)F)c4)c3)ccc2n1             0
 3  COC(=O)Nc1nc2ccc(Oc3ccc(CC(=O)Nc4cc(C(F)(F)F)ccc4F)cc3)cc2[nH]1            12
 4  Cn1cc(-c2cnc(N)c3c(-c4ccc5c(c4)CCN5C(=O)Cc4ccccc4)csc23)cn1            13
 5  CCn1c(-c2nonc2N)nc2c(-c3ccccc3)ncc(OCCCN)c21.O=C(O)C(F)(F)F.O=C(O)C(F)(F)F            14
 6  O=C(Nc1c(F)cccc1F)c1cc(C(=O)c2ccccc2F)c[nH]1             8
 7  COc1cccc(C2=C(Nc3cccc(O)c3)C(=O)NC2=O)c1            34
 8  Cc1ccc(O)cc1Nc1ccnc2cc(-c3ccc(CN4CCCCC4)o3)ccc12             8
 9  CCNc1nccc(-c2c(-c3ccc(F)cc3)ncn2C2CCN(C)CC2)n1             8
10  Cc1cc(-c2c(-c3ccc(F)cc3)ncn2CCCN2CCOCC2)nc(N)n1             8
11  O=C(O)C(F)(F)F.O=c1[nH]ccc2nc(N[C@@H]3CCNC3)nc(Nc3cc(Cl)cc(Cl)c3)c12            57
12  CSc1ccc(NC2=C(c3ccc(Cl)cc3)C(=O)NC2=O)cc1             1
13               CCn1cnc2c(NCc3ccccc3)ncnc21             0
14          Cc1cccc(Nc2nc(NCCN)ncc2C(N)=O)c1            27
15   O=C1NC(=O)C(c2ccccc2Cl)=C1Nc1cccc(Cl)c1            19
16  Fc1cc(Cl)ccc1Nc1ccnc2cc(-c3ccc(CN4CCOCC4)o3)ccc12             0
17  Cc1ccc(NC(=O)c2ccc(Cl)c(Cl)c2)cc1-c1ccc(C(=O)Nc2ccncc2)cc1             0
18  COc1cccc(NC(=O)NCCNc2ccnc(Nc3ccc(F)cc3)n2)c1            14
19  Cl.N#CCc1ccc(Nc2nccc(Nc3ccc(Oc4ccccc4)cc3)n2)cc1             0
20  COc1cc(Nc2nccc(N3CCC(NS(=O)(=O)c4ccc(NC(C)=O)cc4)CC3)n2)cc(OC)c1OC            12
21    O=C(Nc1n[nH]c2nc(-c3ccccc3)ccc12)C1CC1            17
22  CS(=O)(=O)c1cccc(CNc2nc(Nc3ccc4c(c3)CCC(=O)N4)ncc2C(F)(F)F)c1             0
23  NCCC(NC(=O)c1cc(Br)c(-c2ccnc3[nH]ccc23)s1)c1ccccc1.O=C(O)C(F)(F)F.O=C(O)C(F)(F)F (stereo not shown)            26
24  Cc1cccc(Nc2nc(N[C@H]3CCCC[C@H]3N)ncc2C(N)=O)c1.Cl            33
25  COC(=O)Nc1nc2ccc(Oc3ccc(NC(=O)Nc4cc(C(F)(F)F)ccc4F)cc3)cc2[nH]1.Cl            15
26  N#Cc1cnc2cc(-c3cnc(CNCCN4CCOCC4)s3)ccc2c1Nc1ccc(Oc2ccccc2)cc1             0
27   O=C(Nc1n[nH]c2nc(-c3ccccc3O)ccc12)C1CC1             0

###

- Tested on: MERTK
- Condition Parameters: concentration: 1 μM, replicates: in singlicate; n = 1
Quantity Kind: %Inh (%)

>>> print(df.to_string())
                                test_smiles  quantity_kind  assay_result
0   O=C1NC(=O)C(c2ccccc2Cl)=C1Nc1cccc(Cl)c1           %Inh             1
1  Cl.O=C(Nc1ccc(Oc2ccc3[nH]c(NC(=O)c4ccco4)nc3c2)cc1)Nc1cc(C(F)(F)F)ccc1F           %Inh          99.6
2  COc1cccc(-c2nc(-c3ccccc3)[nH]c2-c2ccncc2)c1           %Inh             9

###

- Tested on: SGK3
- Condition Parameters: concentration: 1 μM, replicates: in singlicate; n = 1
We begin with a simple list: items and their reported %Inh.
Quantity Kind: %Inh (%)

>>> print(df.to_string())
                                   compound  study_target  assay_result
0  COc1ccc(C)c(Nc2ccnc(Nc3ccc(-c4cnc[nH]4)cc3)n2)c1.Cl [GW784041]          SGK3            12
1  O=C(Nc1n[nH]c2cc(-c3cccs3)ccc12)C1CC1 [SB-731284]          SGK3            37
2  Fc1cc(Cl)ccc1Nc1ccnc2cc(-c3ccc(CN4CCOCC4)o3)ccc12 [GW560109]          SGK3             0
3  Cc1ccccc1CC(=O)N1CCc2cc(-c3cn(C)c4ncnc(N)c34)ccc21 [GSK2603346]          SGK3             0

###

- Tested on: SRC
- Condition Parameters: concentration: 1 μM, replicates: in singlicate; n = 1
Quantity Kind: %Inh (%)

>>> df
                                    compound  units_text  assay_result
 0  O=C(Nc1n[nH]c2nc(-c3cccc(O)c3)ccc12)C1CC1 [SB-711805]           %             0
 1  COC(=O)Nc1nc2cc(Oc3ccc(NC(=O)Nc4cccc(SC)c4)cc3)ccc2[nH]1.Cl [GW697999]           %            61
 2  COc1cc(Nc2ccnc3cc(-c4ccncc4)ccc23)cc(OC)c1OC.Cl [GW494610]           %          96.1
 3  Nc1cccc(-c2ccc3c(N)n[nH]c3c2)c1 [GSK2193613]           %             0
 4  COc1cccc(NC(=O)NCCNc2ccnc(Nc3ccc(F)cc3)n2)c1 [GSK1379879]           %             0
 5  Nc1ncc(-c2ccc3nccc(-c4ccncc4)c3c2)cc1S(=O)(=O)N1CCCCC1 [GSK1693850]           %             0
 6  Fc1cc(Cl)ccc1Nc1ccnc2cc(-c3ccc(CN4CCOCC4)o3)ccc12 [GW560109]           %          99.2
 7  Cc1cccc(Nc2nc(N[C@H]3CCCC[C@H]3N)ncc2C(N)=O)c1.Cl [GSK986310]           %            65
 8  Cl.O=C(Nc1ccc(Oc2ccc3[nH]c(NC(=O)c4ccco4)nc3c2)cc1)Nc1cc(C(F)(F)F)ccc1F [GW683134]           %            23
 9  CN(c1ccc(NC(=O)N2CCN(CCCN3CCOCC3)CC2)cc1)c1ccnc(Nc2ccc(CS(C)(=O)=O)cc2)n1.Cl [GW830899]           %            10
10  CN(c1ccc2c(c1)nc(NCc1ccccc1)n2C)c1ccnc(Nc2ccc(CS(C)(=O)=O)cc2)n1.Cl [GW811603]           %            32
